Values from ChEMBL document CHEMBL1127021

Target: Acyl-CoA:cholesterol acyltransferase (Oryctolagus cuniculus, UniProt Q95214)
Sequence (Q95214 whole entry): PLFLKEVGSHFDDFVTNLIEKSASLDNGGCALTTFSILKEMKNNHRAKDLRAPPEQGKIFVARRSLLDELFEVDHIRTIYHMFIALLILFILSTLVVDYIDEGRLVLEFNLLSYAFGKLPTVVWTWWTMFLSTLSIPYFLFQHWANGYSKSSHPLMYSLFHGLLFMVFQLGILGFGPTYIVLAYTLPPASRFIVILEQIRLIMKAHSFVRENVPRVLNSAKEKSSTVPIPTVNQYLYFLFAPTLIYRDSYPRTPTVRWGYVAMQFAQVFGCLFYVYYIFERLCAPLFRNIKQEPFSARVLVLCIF
Test: Inhibition against acyl coenzyme A:cholesterol acyltransferase derived from rabbit aorta homogenate
Assay type: tissue-based
VALUE KIND: IC50 (nM)
Answers are plain numbers, in nM.

// below: answered molecules
CCCCCNC(=O)Nc1c(C)cccc1OCCCn1cnc(-c2ccccc2)c1COC
290
Cc1cccc(OCCCn2cnc(-c3ccccc3)c2Cl)c1NC(=O)NCCC(C)C
88
CCCCCNC(=O)Nc1c(C)cccc1OCCCn1cnc(-c2ccccc2C)c1
100
CCCCCNC(=O)Nc1c(OC)cccc1OCCCn1cnc(-c2ccccc2)c1C
220
CCCCCNC(=O)Nc1c(C)cccc1OCCCn1cnc(-c2ccccc2)c1Cl
84

Need IC50 for each of these molecules.
1. CCCCCNC(=O)Nc1c(C)cccc1C[S+]([O-])CCn1cnc(-c2ccccc2)c1C (stereo not given)
2. CCCCCNC(=O)Nc1ccccc1OCCCn1cnc(-c2ccccc2)c1C
3. Cc1cccc(OCCCn2cnc(-c3ccccc3)c2)c1NC(=O)NCCC(C)C
4. CCCCCNC(=O)Nc1c(C)cccc1S(=O)(=O)CCCn1cnc(-c2ccccc2)c1C

*A*
440
390
370
730

----------
Target: O-acyltransferase (Oryctolagus cuniculus)
Sequence (G1SFD9 1-524): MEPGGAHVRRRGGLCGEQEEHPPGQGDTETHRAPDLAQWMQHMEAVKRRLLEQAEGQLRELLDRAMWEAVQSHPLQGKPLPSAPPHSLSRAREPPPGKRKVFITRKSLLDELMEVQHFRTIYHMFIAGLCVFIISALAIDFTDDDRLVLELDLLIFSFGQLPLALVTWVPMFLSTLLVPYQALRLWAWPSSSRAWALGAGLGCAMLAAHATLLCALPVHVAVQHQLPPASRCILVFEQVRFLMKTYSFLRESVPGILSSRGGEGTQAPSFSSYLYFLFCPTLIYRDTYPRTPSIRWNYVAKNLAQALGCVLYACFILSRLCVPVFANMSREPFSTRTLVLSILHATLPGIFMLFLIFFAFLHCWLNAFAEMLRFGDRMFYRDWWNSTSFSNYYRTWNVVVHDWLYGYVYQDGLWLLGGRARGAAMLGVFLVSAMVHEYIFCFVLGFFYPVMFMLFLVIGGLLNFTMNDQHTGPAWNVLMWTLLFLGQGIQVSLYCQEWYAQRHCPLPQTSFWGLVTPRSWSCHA
Experiment: Inhibition against acyl coenzyme A:cholesterol acyltransferase derived from rabbit intestine microsomes
VALUE KIND: IC50 (nM)
Answers are plain numbers, in nM.

// below: answered compounds
CCCCCNC(=O)Nc1c(C)cccc1OCCCn1cnc(-c2ccccc2)c1COC
480
CCCCCNC(=O)Nc1ccccc1OCCCn1cnc(-c2ccccc2)c1C
230
CCCCCNC(=O)Nc1c(C)cccc1OCCCn1cnc(-c2ccccc2)c1C(=O)OCC
150
CCCCCNC(=O)Nc1c(Cl)cccc1OCCCn1cnc(-c2ccccc2)c1C
73
CCCCCNC(=O)Nc1c(F)cccc1OCCCn1cnc(-c2ccccc2)c1C
69

Need IC50 for each of these compounds.
1. Cc1cccc(OCCCn2cnc(-c3ccccc3)c2)c1NC(=O)NCC(C)(C)C
2. CCCCNC(=O)Nc1c(C)cccc1OCCCn1cnc(-c2ccccc2)c1C

*A*
[320, 73]

----------
Biological target: Acyl-CoA:cholesterol acyltransferase (Oryctolagus cuniculus)
Assay: Inhibition against acyl coenzyme A:cholesterol acyltransferase derived from rabbit aorta homogenate
Type: tissue-based
VALUE KIND: pIC50
Numbers only, as −log10 of the molar value.

// below: answered compounds
CCCCCNC(=O)Nc1c(N)cccc1OCCCn1cnc(-c2ccccc2)c1C
6.23
Cc1cccc(OCCCn2cnc(-c3ccccc3)c2)c1NC(=O)NCC(C)(C)C
7.14

Need pIC50 for each of these compounds.
1. CCCCCNC(=O)Nc1c(C)cccc1CSCCn1cnc(-c2ccccc2)c1C
2. CCCCCNC(=O)Nc1c(OCCCn2cnc(-c3ccccc3)c2C)cccc1C(C)C
3. CCCCCNC(=O)Nc1c(C)cccc1C(=O)NCCn1cnc(-c2ccccc2)c1C
4. Cc1cccc(OCCCn2cnc(-c3ccccc3)c2C(C)C)c1NC(=O)NCCC(C)C
5. CCCCCNC(=O)Nc1c(C)cccc1OCCCn1cnc(-c2ccccc2[N+](=O)[O-])c1
6. CCCCCNC(=O)Nc1c(C)cccc1OCCCn1cnc(-c2ccc(F)cc2F)c1

*A*
1. 7.15
2. 7.35
3. 6.55
4. 7.72
5. 6.77
6. 6.92

Need pIC50 for each of these compounds.
1. CCCCCNC(=O)Nc1c(C)cccc1OCCCn1cnc(-c2cc(OC)c(OC)c(OC)c2)c1
2. CCCCNC(=O)Nc1c(C)cccc1OCCCn1cnc(-c2ccccc2)c1C(C)C

*A*
[6.05, 7.92]

Need pIC50 for each of these compounds.
1. Cc1cccc(OCCCn2cnc(-c3ccccc3)c2Cl)c1NC(=O)NCC(C)(C)C
2. CCCCNC(=O)Nc1c(C)cccc1OCCCn1cnc(-c2ccccc2)c1CC
3. CCCCCNC(=O)Nc1c(OCCCn2cnc(-c3ccccc3)c2C)cccc1[N+](=O)[O-]
4. CCCCCNC(=O)Nc1c(C)cccc1OCCCn1cnc(-c2ccccc2)c1
5. CCCCNC(=O)Nc1c(C)cccc1OCCCn1cnc(-c2ccccc2)c1CO

*A*
[7.32, 6.80, 7.22, 6.51, 6.23]

Need pIC50 for each of these compounds.
1. CCCCCNC(=O)Nc1c(C)cccc1OCCCn1cnc(-c2ccccc2S(C)(=O)=O)c1
2. CCCCCNC(=O)Nc1c(OCCCn2cnc(-c3ccccc3)c2C)cccc1S(C)(=O)=O

*A*
[6.39, 7.30]
